The reported measurements were obtained from patent US11142546B2.

EXPERIMENTAL SYSTEM: human NPS receptor variants (NPS Ile107 and Asn107) (Homo sapiens, UniProt Q6W5P4)
Sequence (Q6W5P4 whole entry N107I, form open): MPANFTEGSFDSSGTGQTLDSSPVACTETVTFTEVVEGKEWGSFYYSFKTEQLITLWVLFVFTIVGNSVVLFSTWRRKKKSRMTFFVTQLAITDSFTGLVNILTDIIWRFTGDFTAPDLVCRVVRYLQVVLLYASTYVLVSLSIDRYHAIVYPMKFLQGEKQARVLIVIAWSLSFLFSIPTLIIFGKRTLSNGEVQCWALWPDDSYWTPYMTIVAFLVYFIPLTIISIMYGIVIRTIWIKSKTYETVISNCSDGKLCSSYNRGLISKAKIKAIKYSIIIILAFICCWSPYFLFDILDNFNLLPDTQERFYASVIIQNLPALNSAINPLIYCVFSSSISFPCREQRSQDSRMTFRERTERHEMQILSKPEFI
ASSAY PROCEDURE: Functional determination of EC50 by calcium mobilization in RD-HGA16 CHO cells overexpressing the NPS receptor
TEST CONDITIONS: FlexStation, mean of at least three independent experiments, receptor variant not given
Text: Functional Determinations of EC50: Identification of functional agonists at the NPS receptor was done utilizing RD-HGA16 cells (Molecular Devices), a Chinese Hamster Ovary cell line stably expressing the promiscuous Gq-protein Gα16. RD-HGA16 cells were engineered to stably overexpress the NPS receptor. Two individual cell lines were created that stably express one of two human NPS receptor variants (NPS Ile107 and Asn107). […]
MEASURE NAME: pEC50
One number for each entry, as −log10 of the molar value.

For every item in the list below, what is its measured pEC50?
1. NC(=O)[C@@H]1CCCC[C@H]1NC(=O)CNC(=O)C(CCC1CCCCC1)Cc1ccccc1 (relative stereo)
2. NC(=O)[C@H]1CCCC[C@@H]1NC(=O)CNC(=O)/C=C/c1ccccc1 (racemic)
3. NC(=O)[C@H]1CCCC[C@@H]1OC(=O)CNC(=O)[C@H](Cc1ccccc1)NC(=O)c1ccccc1
4. NCCCC[C@H](NC(=O)C(CCc1ccccc1)Cc1ccccc1)C(=O)NC1CCCCC1C(N)=O (stereo partly shown)

A.
1. 6.05
2. 5.68
3. 7.03
4. 7.11
